test: in vitro; settings: human, hela cells, % viability
measured.property: viability at 28.5 h, 10 µM (%)
Give just the numeric value; % need not be written.

>  <compound>
O=C(COc1ccccc1)N/N=C/c1ccc[nH]1 [CBK261281]

>  <value>
104

$$$$

Query: Name the reported viability at 28.5 h, 10 µM value associated with the compound O=C(c1nc2ccccc2[nH]1)N1CCN(c2ccccc2)CC1 [CBK200167]
Response: 103

###

Form field: viability at 28.5 h, 10 µM (one value per entry).
test: in vitro; settings: human, hela cells, % viability
Give just the numeric value; % need not be written.

Past entries and their recorded results:
>  <compound>
O=C(Cc1cccc(F)c1)N1CCC(O)(c2ccccn2)CC1

>  <viability at 28.5 h, 10 µM (%)>
100

$$$$
>  <compound>
CCOc1ccc(N2C(=O)CC(Nc3cc(C(=O)O)ccc3C)C2=O)cc1 (stereo not drawn)

>  <viability at 28.5 h, 10 µM (%)>
97.1

$$$$
>  <compound>
CN(C)C(=O)CN1CCCC2(CCN(C(=O)c3cc(F)c(F)cc3F)C2)C1 (stereo not drawn)

>  <viability at 28.5 h, 10 µM (%)>
93.5

$$$$
>  <compound>
O=C(c1cccnc1)N1CCc2ccccc21

>  <viability at 28.5 h, 10 µM (%)>
121

$$$$

Query: Name the reported viability at 28.5 h, 10 µM value associated with the compound O=C(Cc1ccc(F)cc1)N1CCCC1c1cccc(Cc2ccc(F)cc2)n1 (stereo not drawn)
Response: 94.7

Query: Name the reported viability at 28.5 h, 10 µM value associated with the compound Cc1oc(NC(=O)CN2CCN(c3ccccc3Cl)CC2)c(C#N)c1C
Response: 84.7

Query: Name the reported viability at 28.5 h, 10 µM value associated with the compound CN(CC(=O)Nc1ccccc1N1CCCC1)Cc1cnn(Cc2ccccc2)c1
Response: 105

Query: Name the reported viability at 28.5 h, 10 µM value associated with the compound Cc1cc(=O)oc2cc(OC(C)C(=O)NCC(=O)O)ccc12 (stereo not drawn)
Response: 106

Query: Name the reported viability at 28.5 h, 10 µM value associated with the compound O=C(N/N=C/c1ccc([N+](=O)[O-])cc1)c1ccc(O)cc1O
Response: 105
